# Target or system: CB1 receptor (Homo sapiens, UniProt P21554)
# Sequence (P21554 whole entry): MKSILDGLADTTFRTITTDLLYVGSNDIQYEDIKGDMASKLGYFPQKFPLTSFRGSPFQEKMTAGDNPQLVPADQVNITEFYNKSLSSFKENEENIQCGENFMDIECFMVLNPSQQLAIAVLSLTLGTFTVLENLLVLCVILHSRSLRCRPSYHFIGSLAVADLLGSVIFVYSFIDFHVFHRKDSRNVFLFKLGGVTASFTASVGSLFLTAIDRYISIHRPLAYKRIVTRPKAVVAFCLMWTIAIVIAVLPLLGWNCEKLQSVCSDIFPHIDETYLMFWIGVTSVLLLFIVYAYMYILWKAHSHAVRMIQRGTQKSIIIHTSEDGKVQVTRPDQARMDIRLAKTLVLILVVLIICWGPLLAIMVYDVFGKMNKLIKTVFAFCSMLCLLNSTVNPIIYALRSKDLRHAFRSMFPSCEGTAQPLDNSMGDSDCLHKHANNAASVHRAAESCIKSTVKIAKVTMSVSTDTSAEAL
# Assay details: [35S]-GTPγS binding assay on membranes from cells stably transfected with the CB1 gene, inhibition of CP55940 (EC80)
# Study conditions: half maximal inhibition of GTPγS binding in presence of EC80 concentration of agonist CP55940; CB1-transfected cell membranes
pIC50: −log10 of the molar value.
Endpoint: pIC50

smi=CCCS(=O)(=O)Oc1ccc(-c2c(C)c(C(=O)NC3(C(=O)OC)CCCC3)nn2-c2ccc(Cl)cc2Cl)cc1 endpoint=pIC50 measurement=8.22
smi=CCCOC(=O)Oc1ccc(-c2c(C)c(C(=O)NN3CCCCC3)nn2-c2ccc(Cl)cc2Cl)cc1 endpoint=pIC50 measurement=8.19
